- Tested on: CCRIS mutagenicity, Ames/micronucleus/aberration tests
- test method notes: CCRIS mutagenicity studies
- experimental context: Test System: AMES SALMONELLA TYPHIMURIUM; Strain/Indicator: TA98; Metabolic Activation: NONE; Method: STANDARD PLATE
Active and inactive are the calls of the source. How the calls were made is not given here.
Respond with a class label; see active, inactive

[
  {
    "molecule": "Nc1n[nH]c(N)n1",
    "answer label": "inactive"
  },
  {
    "molecule": "O=C1c2c(ccc3ccccc23)-c2cccc3cccc1c23",
    "answer label": "inactive"
  },
  {
    "molecule": "OCc1ccco1",
    "answer label": "inactive"
  }
]

# evaluate next
Which result was noted for this molecule in the test: c1cc2ccc3ccc4ccc5ccc6ccc1c1c2c3c4c5c61 inactive

====

- System: CCRIS mutagenicity, Ames/micronucleus/aberration tests
- test method notes: CCRIS mutagenicity studies
- experimental context: Test System: AMES SALMONELLA TYPHIMURIUM; Strain/Indicator: TA1538; Metabolic Activation: NONE; Method: STANDARD PLATE
The source made the active and inactive calls. No rule for the calls is given here.
Would you mind answering with one of these outcomes? active, inactive

Previously resolved entries follow.
[
  {
    "molecule": "CC(C)NCC1CCc2cc(CO)c([N+](=O)[O-])cc2N1 (centres undefined)",
    "answer label": "inactive"
  },
  {
    "molecule": "Cc1ccc(C(=O)c2cc(O)c(O)c([N+](=O)[O-])c2)cc1",
    "answer label": "inactive"
  },
  {
    "molecule": "CCCCCCCCCCCCOC(=O)CCSCCC(=O)OCCCCCCCCCCCC",
    "answer label": "inactive"
  }
]

Write down the call the test reported for this molecule. Item: COc1ccc2nc3cc(Cl)ccc3c(NCCCNCCCl)c2n1 active

I would be grateful if you could indicate the recorded call for CCNc1nc(Cl)nc(NC(C)C)n1 . inactive

Each molecule tested received a call. Report the one for O=C(O)O . inactive

Returns: the outcome recorded for C=C(C)C(=O)OCC(C)(C)C in this assay. inactive

====

- Test system: CCRIS mutagenicity, Ames/micronucleus/aberration tests
- test method notes: CCRIS mutagenicity studies
- experimental context: Test System: AMES SALMONELLA TYPHIMURIUM; Strain/Indicator: TA100; Metabolic Activation: NONE; Method: STANDARD PLATE
Calls of active or inactive are those of the source. The rule behind the calls is not given here.
# output must be one of active, inactive

[
  {
    "compound": "Nc1n[nH]c(N)n1",
    "answer label": "inactive"
  }
]

Which outcome did this test record for the compound CN(C)N=O ? inactive

// outcome(item) with item = c1c[nH]cn1 inactive

Record lookup: outcome of this test for ClCc1cc2cc3ccccc3c3ccc4cccc1c4c23 ? active

====

- System: CCRIS mutagenicity, Ames/micronucleus/aberration tests
- test method notes: CCRIS mutagenicity studies
- experimental context: Test System: AMES SALMONELLA TYPHIMURIUM; Strain/Indicator: TA100; Metabolic Activation: NONE; Method: PREINCUBATION
The source made the active and inactive calls. How the calls were made is not given here.
measurement name: mutagenic call

[
  {
    "compound": "O=[N+]([O-])c1ccc2oc3ccccc3c2c1",
    "mutagenic call": "inactive; negative"
  },
  {
    "compound": "CCCCN(C[C@H](CO)OCc1ccccc1)N=O",
    "mutagenic call": "inactive; negative"
  },
  {
    "compound": "NCCS(=O)(=O)O",
    "mutagenic call": "inactive; negative"
  },
  {
    "compound": "O[C@H]1[C@H]2O[C@H]2c2c(c3ccccc3c3ccccc23)[C@@H]1O",
    "mutagenic call": "active; positive"
  },
  {
    "compound": "C1COC1",
    "mutagenic call": "inactive; negative"
  }
]

For reference, reported mutagenic call for O=C1c2ccccc2C(=O)N1SC(Cl)(Cl)Cl stands at active; positive

For reference, reported mutagenic call for O=Cc1ccc(Cl)cc1 stands at inactive; negative

For reference, reported mutagenic call for COc1cc(-c2ccc(N/N=C3\C(=O)c4c(O)cc(S(=O)(=O)O)cc4C=C3S(=O)(=O)O)c(OC)c2)ccc1N/N=C1\C(=O)c2c(O)cc(S(=O)(=O)O)cc2C=C1S(=O)(=O)O stands at inactive; negative

For record C=CC(=O)NCNC(=O)C=C the listed mutagenic call is inactive; negative

Short answer for O=[N+]([O-])c1ccc(CCO)cc1 : mutagenic call was inactive; negative

Measured mutagenic call of COc1ccc(OC)c(N=Nc2c(O)ccc3ccccc23)c1 : inactive; negative

====

- Tested on: CCRIS mutagenicity, Ames/micronucleus/aberration tests
- test method notes: CCRIS mutagenicity studies
- experimental context: Test System: AMES SALMONELLA TYPHIMURIUM; Strain/Indicator: TA98; Metabolic Activation: RAT, LIVER, S-9, AROCLOR 1254; Method: STANDARD PLATE
The source made the active and inactive calls. The rule behind the calls is not given here.
Give your call using only these classes: True = active, False = inactive

[
  {
    "compound": "Clc1cncc(Cl)c1",
    "answer label": "False"
  }
]

Short answer needed: outcome of this test for O=[N+]([O-])O[C@H]1CO[C@H]2[C@@H]1OC[C@H]2O[N+](=O)[O-] ? False

Dear colleague, could you share the recorded outcome for COC(=O)C1(C(N)=O)OC1(C)C(O)C(C)C (stereo unspecified) when you have a moment? True

In this assay, the call recorded for OC[C@@H](O)[C@@H](O)[C@H](O)[C@H](O)CO was what? False

Hello, I am checking results. What call was entered for O=C(O)CN(CCN(CC(=O)O)CC(=O)O)CC(=O)O ? False

Dear colleague, could you share the recorded outcome for CCN(CC)c1ccc(N=Nc2ccc(N=Nc3c(S(=O)(=O)O)cc4ccc(N)cc4c3O)c(OC)c2)cc1 when you have a moment? True

What did the test return for COC(=O)C12OC1(C)C(C)(O)OC2=O (stereo unspecified) ? True

What was the test verdict on c1cc2ccc3ccc4ccc5ccc6ccc1c1c2c3c4c5c61 ? True

Recorded call for C=C1C(=O)O[C@@H]2[C@H]1CC[C@H](C)[C@@H]1C=CC(=O)[C@@]21C ? False

What did this assay record as the result for CC(C)(C#N)C(C)(C)C#N ? False

Identify the outcome logged in this assay for the compound shown: COc1cccc2c1C(=O)c1c(O)c3c(c(O)c1C2=O)C[C@@](O)(C(=O)CO)C[C@@H]3O True

====

- System: CCRIS mutagenicity, Ames/micronucleus/aberration tests
- test method notes: CCRIS mutagenicity studies
- experimental context: Test System: AMES SALMONELLA TYPHIMURIUM; Strain/Indicator: TA1537; Metabolic Activation: RAT, LIVER, S-9, AROCLOR 1254; Method: PREINCUBATION
Activity calls are given as the source filed them. No rule for the calls is given here.
Write down one outcome, taken from active, inactive

[
  {
    "compound": "C=CC=O",
    "answer label": "inactive"
  },
  {
    "compound": "C#C[C@]1(O)CC[C@H]2[C@@H]3CCC4=CC(=O)CC[C@@H]4[C@H]3CC[C@@]21C",
    "answer label": "inactive"
  },
  {
    "compound": "CC(=O)OC(C)(C)C",
    "answer label": "inactive"
  }
]

How was COc1ccc(O)cc1 classified in this test? inactive

# outcome recorded in this test, key = O=C1c2ccccc2C(=O)c2c1cc(O)c(CO)c2O active

Record lookup: outcome of this test for CC(=O)OCC(O)CO (configuration not stated) ? inactive

Tell me the recorded outcome of this test for C1CC2OC2CC1C1CO1 (configuration not stated) . active

Name the outcome recorded for Clc1ccccc1 in the assay. inactive

# outcome recorded in this test, key = CC[C@H]1OC(=O)[C@H](C)[C@@H](O[C@H]2C[C@@](C)(OC)[C@@H](O)[C@H](C)O2)[C@H](C)[C@@H](O[C@@H]2O[C@H](C)C[C@H](N(C)C)[C@H]2O)[C@](C)(O)C[C@@H](C)C(=O)[C@H](C)[C@@H](O)[C@]1(C)O inactive

Look up the recorded call for CN[C@@H]1[C@H](O[C@H]2[C@H](O[C@H]3[C@H](O)[C@@H](O)[C@H](N=C(N)N)[C@@H](O)[C@@H]3N=C(N)N)O[C@@H](C)[C@]2(O)C=O)O[C@@H](CO)[C@H](O)[C@H]1O in this test. inactive

Returns: the outcome recorded for Oc1ccc(Cl)cc1Cl in this assay. inactive

GET /call?item= O=NN1CCCCC1 returns the recorded outcome of this test. inactive

====

- Tested on: CCRIS mutagenicity, Ames/micronucleus/aberration tests
- test method notes: CCRIS mutagenicity studies
- experimental context: Test System: AMES SALMONELLA TYPHIMURIUM; Strain/Indicator: TA1537; Metabolic Activation: NONE; Method: STANDARD PLATE
- Text: The CCRIS database contains chemical records with carcinogenicity, mutagenicity, tumor promotion, and tumor inhibition test results. It was developed by the National Cancer Institute (NCI). Data are derived from studies cited in primary journals, current awareness tools, NCI reports, and other sources. Test results have been reviewed by experts in carcinogenesis and mutagenesis. CCRIS provides historical information from the years 1985 - 2011. It is no longer updated. […]
Calls of active or inactive are those of the source. No rule for the calls is given here. Where a SMILES comes first, the peptide text is derived from it.
Field 'call' accepts Yes for active, No for inactive

Solved entries (count: 8):
[
  {
    "compound": "Nc1nc2ccc([N+](=O)[O-])cc2s1",
    "answer label": "No"
  },
  {
    "compound": "CC(C)C[C@H](NC(=O)[C@H](Cc1ccccc1)NC(=O)CNC(=O)CN)C(=O)O (H-GGFL-OH)",
    "answer label": "No"
  },
  {
    "compound": "[O-]/[N+](=N\\O)c1ccccc1",
    "answer label": "No"
  },
  {
    "compound": "Cl/C=C/CCl",
    "answer label": "No"
  },
  {
    "compound": "O=C(O)/C=C/c1ccc(O)c(O)c1",
    "answer label": "No"
  },
  {
    "compound": "CC(O)CCC(=O)c1ccoc1 (stereo unspecified)",
    "answer label": "No"
  },
  {
    "compound": "C1CCC2CCCCC2C1 (stereo unspecified)",
    "answer label": "No"
  },
  {
    "compound": "CN(C)CC/C=C1\\c2ccccc2COc2ccccc21",
    "answer label": "No"
  }
]

Attention now shifts to the item below.
Which result was noted for this compound in the test: Cc1ccc(C(=O)c2cc(O)c(O)c([N+](=O)[O-])c2)cc1 No
